Biological target: PR (progesterone receptor) (Homo sapiens)
Sequence (P06401 whole entry, species assumed): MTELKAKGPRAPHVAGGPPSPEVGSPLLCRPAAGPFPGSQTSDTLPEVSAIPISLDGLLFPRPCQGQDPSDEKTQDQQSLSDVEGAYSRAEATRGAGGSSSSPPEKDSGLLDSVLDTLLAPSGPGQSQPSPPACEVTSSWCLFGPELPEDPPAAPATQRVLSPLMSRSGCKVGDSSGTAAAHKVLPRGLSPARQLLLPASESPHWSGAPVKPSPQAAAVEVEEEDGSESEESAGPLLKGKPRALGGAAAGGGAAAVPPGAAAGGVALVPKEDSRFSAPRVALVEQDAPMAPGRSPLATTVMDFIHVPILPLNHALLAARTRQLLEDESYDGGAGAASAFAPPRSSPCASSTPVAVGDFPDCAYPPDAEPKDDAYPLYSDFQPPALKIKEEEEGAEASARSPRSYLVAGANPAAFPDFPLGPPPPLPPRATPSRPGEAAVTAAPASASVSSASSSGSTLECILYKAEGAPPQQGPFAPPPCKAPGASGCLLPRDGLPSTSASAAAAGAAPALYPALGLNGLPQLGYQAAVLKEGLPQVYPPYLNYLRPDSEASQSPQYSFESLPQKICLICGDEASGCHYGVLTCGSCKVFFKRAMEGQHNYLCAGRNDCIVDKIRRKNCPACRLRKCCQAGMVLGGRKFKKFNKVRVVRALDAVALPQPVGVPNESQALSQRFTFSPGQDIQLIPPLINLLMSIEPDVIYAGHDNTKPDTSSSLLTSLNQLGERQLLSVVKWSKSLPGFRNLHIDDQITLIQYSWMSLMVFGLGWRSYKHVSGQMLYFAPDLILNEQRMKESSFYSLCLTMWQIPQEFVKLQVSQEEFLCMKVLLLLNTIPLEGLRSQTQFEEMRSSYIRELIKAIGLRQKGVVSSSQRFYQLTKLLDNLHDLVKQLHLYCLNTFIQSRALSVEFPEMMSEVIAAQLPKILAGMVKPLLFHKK
Assay: Relative binding activity (RBA) at PR, progesterone = 100%
Settings: by Kaufmann
reportedEndpoint: RBA (%) PR

Worked cases, answers included:
Task: Note RBA (%) PR for the compound shown: CCSC(=O)O/N=C/c1ccc([C@H]2C[C@@]3(C)[C@@H](CC[C@]3(COC)OC)[C@@H]3CCC4=CC(=O)CCC4=C32)cc1 [J1042]
Result: 164

Task: Note RBA (%) PR for the compound shown: CCNC(=O)O/N=C/c1ccc([C@H]2C[C@@]3(C)[C@@H](CC[C@]3(COC)OC)[C@@H]3CCC4=CC(=O)CCC4=C32)cc1 [J956]
Result: 345

Task: Note RBA (%) PR for the compound shown: COCC1(O)CCC2C3CCC4=CC(=O)CCC4=C3C(c3ccc(C=NO)cc3)CC21C (centres unmarked) [J912]
Result: 162

a: CN(C)c1ccc([C@H]2C[C@]3(C)[C@@H](CC[C@]3(O)CCCO)[C@@H]3CCC4=CC(=O)CCC4=C32)cc1 [Onapristone, reference compound]
b: COC[C@]1(OC)CC[C@H]2[C@@H]3CCC4=CC(=O)CCC4=C3[C@@H](c3ccc(/C=N/O)cc3)C[C@@]21C [J867]
Task: Between a and b , which one has the lower reported RBA (%) PR value? Output the label that corresponds to your choice.
Result: a
(a: 22%, b: 302%)

====

System: pregnant rats
Assay: Abortifacient activity in pregnant rats
Format: in vivo, rat
Settings: s.c.; treatment days 5-7 of pregnancy, autopsy day 9; * SAS, probit procedure
Each entry below lists one item and its recorded abortifacient activity ED50, rat value.

Worked cases, answers included:
Task: Note abortifacient activity ED50, rat for the compound shown: CCNC(=O)O/N=C/c1ccc([C@H]2C[C@@]3(C)[C@@H](CC[C@]3(COC)OC)[C@@H]3CCC4=CC(=O)CCC4=C32)cc1 [J956]
Result: 0.64* mg/animal/day

Task: Note abortifacient activity ED50, rat for the compound shown: COCC1(O)CCC2C3CCC4=CC(=O)CCC4=C3C(c3ccc(C=NO)cc3)CC21C (stereo not drawn) [J912]
Result: 0.36 mg/animal/day

Task: Note abortifacient activity ED50, rat for the compound shown: CC#C[C@]1(O)CC[C@H]2[C@@H]3CCC4=CC(=O)CCC4=C3[C@@H](c3ccc(N(C)C)cc3)C[C@@]21C [RU 486, mifepristone, reference compound]
Result: 0.98* mg/animal/day

Others:
Task: Note abortifacient activity ED50, rat for the compound shown: CCSC(=O)O/N=C/c1ccc([C@H]2C[C@@]3(C)[C@@H](CC[C@]3(COC)OC)[C@@H]3CCC4=CC(=O)CCC4=C32)cc1 [J1042]
Result: >10 mg/animal/day

Task: Note abortifacient activity ED50, rat for the compound shown: CN(C)c1ccc([C@H]2C[C@]3(C)[C@@H](CC[C@]3(O)CCCO)[C@@H]3CCC4=CC(=O)CCC4=C32)cc1 [Onapristone, reference compound]
Result: 1.71* mg/animal/day

Task: Note abortifacient activity ED50, rat for the compound shown: COC[C@]1(OC)CC[C@H]2[C@@H]3CCC4=CC(=O)CCC4=C3[C@@H](c3ccc(/C=N/O)cc3)C[C@@]21C [J867]
Result: 0.65* mg/animal/day

====

Molecular target: GR (Homo sapiens)
Sequence (P04150 1-777): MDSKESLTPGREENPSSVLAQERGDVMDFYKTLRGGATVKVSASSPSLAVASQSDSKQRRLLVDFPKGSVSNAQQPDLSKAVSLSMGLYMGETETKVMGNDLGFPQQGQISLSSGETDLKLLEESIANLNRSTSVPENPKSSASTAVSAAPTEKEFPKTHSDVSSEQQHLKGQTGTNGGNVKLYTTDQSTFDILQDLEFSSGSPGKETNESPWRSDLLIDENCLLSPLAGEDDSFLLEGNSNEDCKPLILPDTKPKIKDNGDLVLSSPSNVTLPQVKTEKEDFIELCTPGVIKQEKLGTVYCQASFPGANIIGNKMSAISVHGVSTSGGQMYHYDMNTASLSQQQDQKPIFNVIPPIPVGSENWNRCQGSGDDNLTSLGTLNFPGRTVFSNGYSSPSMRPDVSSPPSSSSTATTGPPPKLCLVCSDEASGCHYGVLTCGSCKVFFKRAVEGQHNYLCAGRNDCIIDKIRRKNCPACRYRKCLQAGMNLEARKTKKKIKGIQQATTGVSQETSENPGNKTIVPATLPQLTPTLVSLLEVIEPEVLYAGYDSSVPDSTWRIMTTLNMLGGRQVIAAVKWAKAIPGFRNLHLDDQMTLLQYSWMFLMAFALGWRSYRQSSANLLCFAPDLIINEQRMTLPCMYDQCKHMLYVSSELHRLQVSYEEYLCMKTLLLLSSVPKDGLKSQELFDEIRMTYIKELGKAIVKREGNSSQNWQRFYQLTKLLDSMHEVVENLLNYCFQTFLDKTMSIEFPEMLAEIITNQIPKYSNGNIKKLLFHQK
Test: Relative binding activity (RBA) at GR, dexamethasone = 100%
Settings: by Kaufmann
reportedEndpoint: RBA (%) GR

Worked cases, answers included:
Task: Note RBA (%) GR for the compound shown: CCNC(=O)O/N=C/c1ccc([C@H]2C[C@@]3(C)[C@@H](CC[C@]3(COC)OC)[C@@H]3CCC4=CC(=O)CCC4=C32)cc1 [J956]
Result: 154

Task: Note RBA (%) GR for the compound shown: COCC1(O)CCC2C3CCC4=CC(=O)CCC4=C3C(c3ccc(C=NO)cc3)CC21C (stereo not drawn) [J912]
Result: 16

1: CCSC(=O)O/N=C/c1ccc([C@H]2C[C@@]3(C)[C@@H](CC[C@]3(COC)OC)[C@@H]3CCC4=CC(=O)CCC4=C32)cc1 [J1042]
2: COC[C@]1(OC)CC[C@H]2[C@@H]3CCC4=CC(=O)CCC4=C3[C@@H](c3ccc(/C=N/O)cc3)C[C@@]21C [J867]
Task: Between 1 and 2 , which one has the lower reported RBA (%) GR value? Output the label that corresponds to your choice.
Result: 1

Origin of measurements: patent US8193252B1
